// reported pKi for each item listed
# testedSystem: α4β2 nAChR subtype (Rattus norvegicus, UniProt P09483+P12390)
# Construct: expressed in transfected cells
# assayProtocol: biochemical
# Type: binding
# particulars: Table 6; [3H]-EB 0.099 nM, 0.091 nM; ligand 0.00197-100 μM; n = 1; read-out: Ki α4β2
pKi: −log10 of the molar value.
reportedEndpoint: pKi

1. CN1CCC[C@H]1COc1cncc(CCCCCCO)c1: 9.12
2. CN1CCC[C@H]1COc1cncc(C#CCCCCCCCCO)c1: 8.19
3. CN1CCC[C@H]1COc1cncc(C#CCCCCO)c1: 9.09
4. CN1CCC[C@H]1COc1cncc(C#CC(C)(C)O)c1: 8.87
5. CN1CCC[C@H]1COc1cncc(C#CCO)c1: 9.02
6. C#Cc1cncc(OC[C@@H]2CCCN2C)c1: 8.99

----------
# testedSystem: α2β4 nAChR subtype (Rattus norvegicus, UniProt P12389+P12392)
# Construct: expressed in transfected cells
# assayProtocol: biochemical
# Format: binding
reportedEndpoint: Ki (µM)

1) O=c1cccc2n1C[C@H]1C[C@@H]2CN(CCCN2C[C@@H]3C[C@H](C2)c2cccc(=O)n2C3)C1: 3.48
2) O=c1cccc2n1C[C@H]1C[C@@H]2CN(CCCCl)C1: 2.63
3) O=c1cccc2n1C[C@H]1C[C@@H]2CN(CCCCCN2C[C@@H]3C[C@H](C2)c2cccc(=O)n2C3)C1: 1.43
4) O=c1cccc2n1C[C@H]1C[C@@H]2CN(CCCOc2cccnc2)C1: 14
5) CN1CCC[C@H]1COc1cncc(C#CCNC(=O)OC(C)(C)C)c1: 8.24
6) CN1CCC[C@H]1COc1cncc(C#CC(C)(C)O)c1: 5.89
7) CC(N)C#Cc1cncc(OC[C@@H]2CCCN2C)c1 (stereo partly shown): 7.4
8) CN1CCC[C@H]1COc1cncc(C#CCCCCO)c1: 3.23
9) O=c1cccc2n1C[C@@H]1CNC[C@H]2C1 [Cytisine, reference compound]: 0.00351
10) CN1CCC[C@H]1COc1cncc(CCCCCCO)c1: 1.15

----------
# testedSystem: α4β4 nAChR subtype (Rattus norvegicus, UniProt P09483+P12392)
# Construct: expressed in transfected cells
# assayProtocol: biochemical
# Type: binding
# particulars: Ki α4β4, Table 3; mean of 3 independent measurements
pKi: −log10 of the molar value.
reportedEndpoint: pKi

1) OCCCCC#Cc1ccc(C2CC3CCC2N3)cn1 (stereo not shown): 7.21

----------
# testedSystem: receptors in rat forebrain (mainly α4β2) (Rattus norvegicus, UniProt P09483+P12390)
# Construct: from tissue; host or cells: rat forebrain homogenate
# assayProtocol: biochemical
# Format: binding
# particulars: Table 5; *Rat forebrain, mainly α4β2; read-out: Ki α4β2*
Ki listing for selected compounds.
reportedEndpoint: Ki (nM)

1. CN1CCC[C@H]1COc1cncc(C#CCCCCO)c1: 3.56
2. CCCCC#Cc1cncc(OC[C@@H]2CCCN2C)c1: 6.81
3. C#Cc1cncc(OC[C@@H]2CCCN2C)c1: 3.65
4. CN1CCC[C@H]1COc1cncc(C#CC(C)(C)O)c1: 8.39
5. CN1CCC[C@H]1COc1cncc(C#CCO)c1: 3.16
6. Clc1ccc(C2CC3CCC2N3CCCN2C3CCC2C(c2ccc(Cl)nc2)C3)cn1 (centres unmarked) [Ligand 59b, Propane-1,3-N,N′-bisepibatidine]: 10.1
7. CN1CCC[C@H]1COc1cncc(C#CCCCCCCCCO)c1: 21.7
8. CN1CCC[C@H]1COc1cncc(CCCCCCO)c1: 5.39

----------
# testedSystem: α4β2 nAChR subtype (Rattus norvegicus, UniProt P09483+P12390)
# Construct: expressed in transfected cells
# assayProtocol: biochemical
# Format: binding
# particulars: Ki α4β2, Table 4, bivalent analogues
Catalogue of Ki values
reportedEndpoint: Ki (nM)

1. Clc1ccc(C2CC3CCC2N3CCCN2C3CCC2C(c2ccc(Cl)nc2)C3)cn1 (stereo not shown) [Ligand 59b]: 8.7
2. Clc1ccc(C2CC3CCC2N3CCCCCCN2C3CCC2C(c2ccc(Cl)nc2)C3)cn1 (stereo not shown) [Ligand 59c]: 7.2
3. Clc1ccc(C2CC3CCC2N3CCN2C3CCC2C(c2ccc(Cl)nc2)C3)cn1 (stereo not shown) [Ligand 59a]: 10.7
4. Clc1ccc(C2CC3CCC2N3CCCCCCCCCCN2C3CCC2C(c2ccc(Cl)nc2)C3)cn1 (stereo not shown) [Ligand 59d]: 10.3

----------
# testedSystem: receptors in rat forebrain (mainly α4β2) (Rattus norvegicus, UniProt P09483+P12390)
# Construct: from tissue; host or cells: rat forebrain homogenate
# assayProtocol: biochemical
# Format: binding
# particulars: Ki Rat forebrain, Table 1; mean of 3 (1, 2: 3 to 6) independent measurements
pKi: −log10 of the molar value.
reportedEndpoint: pKi

1. CN1CCC[C@H]1COc1cncc(C#CCCCCCCCCO)c1 [Ligand 17]: 7.66
2. CN1CCC[C@H]1COc1cncc(C#CCO)c1 [Ligand 14]: 8.50
3. C#Cc1cncc(OC[C@@H]2CCCN2C)c1 [Ligand 18]: 8.44

----------
Catalogue of pKi values
# testedSystem: α3β2 nAChR subtype (Rattus norvegicus, UniProt P04757+P12390)
# Construct: expressed in transfected cells
# assayProtocol: biochemical
# Type: binding
# particulars: Ki α3β2, Table 5; rat nAChR subtypes
# From the text: In order to assess the steric and hydropathic effects of the C-5 substituents of the pyridine on the binding affinity and subtype-selectivity at neuronal nicotinic acetylcholine receptors. […] The binding affinity ratios for a ligand, calculated from its affinities at an α subunit paired with either the β2 osubunit or the β4 subunit, represents a measure of the selectivity of that ligand with regard to the β subunits.
pKi: −log10 of the molar value.
reportedEndpoint: pKi

1) OC1C2CCC(N2)C1c1ccc(Cl)nc1 (single isomer, unassigned) [Ligand 2]: 5.95
2) O[C@H]1C[C@H]2C[C@H](c3ccc(Cl)nc3)[C@@H]1N2 (relative stereo): 8.87
3) FCCCCC#Cc1cncc(OC[C@@H]2CCN2)c1: 9.20
4) O=C1CC2CC(c3ccc(Cl)nc3)C1N2 (centres unmarked): 5.82
5) OCCCCC#Cc1cncc(OC[C@@H]2CCN2)c1: 9.28

----------
# testedSystem: α2β2 nAChR subtype (Rattus norvegicus, UniProt P12389+P12390)
# Construct: expressed in transfected cells
# assayProtocol: biochemical
# Assay type: binding
# particulars: Ki α2β2, Table 6; [3H]-EB 0.099 nM, 0.091 nM; ligand 0.00197-100 μM; n = 1
pKi: −log10 of the molar value.
reportedEndpoint: pKi

1) CN1CCC[C@H]1COc1cccnc1 [Ligand 8, reference compound]: 8.97

----------
# testedSystem: α4β4 nAChR subtype (Rattus norvegicus, UniProt P09483+P12392)
# Construct: expressed in transfected cells
# assayProtocol: biochemical
# Assay type: binding
reportedEndpoint: Ki

1) CN1CCC[C@H]1COc1cncc(C#CC(C)(C)O)c1: 5060 nM
2) O=c1cccc2n1C[C@H]1C[C@@H]2CN(CCCCl)C1: 732 nM
3) CN1CCC[C@H]1COc1cncc(C#CCNC(=O)OC(C)(C)C)c1: 8280 nM
4) CN1CCC[C@H]1COc1cncc(CCCCCCO)c1: 968 nM
5) CN1CCC[C@H]1COc1cncc(C#CCCCCO)c1: 1270 nM
6) O=c1cccc2n1C[C@@H]1CNC[C@H]2C1 [Cytisine, reference compound]: 1.52 nM
7) CC(N)C#Cc1cncc(OC[C@@H]2CCCN2C)c1 (stereo partly shown): 6130 nM
8) O=c1cccc2n1C[C@H]1C[C@@H]2CN(CCCOc2cccnc2)C1: 3230 nM
9) O=c1cccc2n1C[C@H]1C[C@@H]2CN(CCCN2C[C@@H]3C[C@H](C2)c2cccc(=O)n2C3)C1: 746 nM
10) O=c1cccc2n1C[C@H]1C[C@@H]2CN(CCCCCN2C[C@@H]3C[C@H](C2)c2cccc(=O)n2C3)C1: 468 nM

----------
# testedSystem: receptors in rat forebrain (mainly α4β2) (Rattus norvegicus, UniProt P09483+P12390)
# Construct: from tissue; host or cells: rat forebrain homogenate
# assayProtocol: biochemical
# Type: binding
# particulars: Ki Forebrain, Table 3; mean of 3 independent measurements
pKi: −log10 of the molar value.
reportedEndpoint: pKi

1) OCCCCC#Cc1ccc(C2CC3CCC2N3)cn1 (stereo not shown): 7.28

----------
# testedSystem: α2β2 nAChR subtype (Rattus norvegicus, UniProt P12389+P12390)
# Construct: expressed in transfected cells
# assayProtocol: biochemical
# Assay type: binding
reportedEndpoint: Ki

1) O=c1cccc2n1C[C@H]1C[C@@H]2CN(CCCCCN2C[C@@H]3C[C@H](C2)c2cccc(=O)n2C3)C1: 240 nM
2) O=c1cccc2n1C[C@H]1C[C@@H]2CN(CCCN2C[C@@H]3C[C@H](C2)c2cccc(=O)n2C3)C1: 318 nM
3) O=c1cccc2n1C[C@@H]1CNC[C@H]2C1 [Cytisine, reference compound]: 0.571 nM
4) O=c1cccc2n1C[C@H]1C[C@@H]2CN(CCCOc2cccnc2)C1: 2980 nM
5) CC(N)C#Cc1cncc(OC[C@@H]2CCCN2C)c1 (stereo partly shown): 7.52 nM
6) CN1CCC[C@H]1COc1cncc(CCCCCCO)c1: 3.33 nM
7) CN1CCC[C@H]1COc1cncc(C#CC(C)(C)O)c1: 1.93 nM
8) CN1CCC[C@H]1COc1cncc(C#CCCCCO)c1: 2.87 nM
9) O=c1cccc2n1C[C@H]1C[C@@H]2CN(CCCCl)C1: 1340 nM
10) CN1CCC[C@H]1COc1cncc(C#CCNC(=O)OC(C)(C)C)c1: 1.19 nM
